Every entry's value here was drawn from patent US7138428B2.

# Test system: MCF-7 (breast cancer)
# testSummary: cells
# experimentalSetup: MCF-7
So basically, if LC50 (50% cell destroying lethal concentration) comes in under 6 µg/mL it's condition met, and if it's 6 µg/mL or more it's condition not met.

A selection of reference data follows.
CC(C)=CCc1c2c(c(O)c3c1OC14C(=CC5CC1C(C)(C)OC4(C/C=C(\C)CO)C5=O)C3=O)C=CC(C)(C)O2 (stereo not drawn) [TSB-6, isomorellinol]: condition met
CC(C)=CCc1c2c(c(O)c3c1O[C@]14C(=C[C@@H]5C[C@H]1C(C)(C)O[C@@]4(C/C=C(/C)C(=O)O)C5=O)C3=O)C=CC(C)(C)O2 [TSB-7, morellic acid]: condition not met
CC(C)=CCc1c2c(c(O)c3c1OC14C(=CC5CC1C(C)(C)OC4(C/C=C(\C)C(=O)O)C5=O)C3=O)C=CC(C)(C)O2 (stereo not drawn) [TSB-2, isomorellic acid]: condition not met

(Q) is_below(LC50 (50% cell destroying lethal concentration), 6 µg/mL) for CC(C)=CCc1c2c(c(O)c3c1O[C@@]14C(=C[C@H]5CC1C(C)(C)O[C@]4(CC=C(C)C)C5=O)C3=O)C=CC(C)(C)O2 [TSB-8, desoxymorellin] ?
(A) condition not met

(Q) I'd appreciate it if you could check whether CC(C)=CCC[C@]1(C)C=Cc2c(O)c3c(c(CC=C(C)C)c2O1)O[C@]12C(=C[C@@H]4C[C@H]1C(C)(C)O[C@@]2(C/C=C(/C)C(=O)O)C4=O)C3=O [TSB-5, gambogic acid] has LC50 (50% cell destroying lethal concentration) smaller than 6 µg/mL.
(A) condition met

(Q) Lab note: confirm whether the reported LC50 (50% cell destroying lethal concentration) for this compound is below 6 µg/mL, equality not counting. compound: CC(C)=CCC[C@]1(C)C=Cc2c(O)c3c(c(CC=C(C)C)c2O1)O[C@]12C(=C[C@@H]4C[C@H]1C(C)(C)O[C@@]2(C/C=C(\C)C(=O)O)C4=O)C3=O [TSB-3, isogambogic acid]
(A) condition met

----------
# System: A549 (lung cancer)
# testSummary: cells
# experimentalSetup: A549
Listed here are compounds together with their documented LC50 (50% cell destroying lethal concentration).
Record the value in mg/L, omitting the unit from your answer.

As a guide, the following entries are already answered.
CC(C)=CCC[C@]1(C)C=Cc2c(O)c3c(c(CC=C(C)C)c2O1)O[C@]12C(=C[C@@H]4C[C@H]1C(C)(C)O[C@@]2(C/C=C(/C)C(=O)O)C4=O)C3=O [TSB-5, gambogic acid]: 2.9
CC(C)=CCc1c2c(c(O)c3c1OC14C(=CC5CC1C(C)(C)OC4(C/C=C(\C)C(=O)O)C5=O)C3=O)C=CC(C)(C)O2 (stereo not drawn) [TSB-2, isomorellic acid]: 4.6
CC(C)=CCc1c2c(c(O)c3c1O[C@@]14C(=C[C@H]5CC1C(C)(C)O[C@]4(CC=C(C)C)C5=O)C3=O)C=CC(C)(C)O2 [TSB-8, desoxymorellin]: 56
CC(C)=CCC[C@]1(C)C=Cc2c(O)c3c(c(CC=C(C)C)c2O1)O[C@]12C(=C[C@@H]4C[C@H]1C(C)(C)O[C@@]2(C/C=C(\C)C(=O)O)C4=O)C3=O [TSB-3, isogambogic acid]: 4.8
CC(C)=CCc1c2c(c(O)c3c1O[C@]14C(=C[C@@H]5C[C@H]1C(C)(C)O[C@@]4(C/C=C(/C)C(=O)O)C5=O)C3=O)C=CC(C)(C)O2 [TSB-7, morellic acid]: 3.4

Kindly consider the entry below.
The value of LC50 (50% cell destroying lethal concentration) recorded for CC(C)=CCc1c2c(c(O)c3c1OC14C(=CC5CC1C(C)(C)OC4(C/C=C(\C)CO)C5=O)C3=O)C=CC(C)(C)O2 (stereo not drawn) [TSB-6, isomorellinol] when tested on A549 (lung cancer) reads 9.6
